Test system: Hepatotoxicity
Assay: Human drug-induced liver injury (DILI) modelling dataset from Ekins et al
Attribute measured: Hepatotoxicity

Please review the following examples before continuing.
// map C[C@H](O)C(=O)Nc1c(I)c(C(=O)NC(CO)CO)c(I)c(C(=O)NC(CO)CO)c1I [IOPAMIDOL] to recorded Hepatotoxicity (system: Hepatotoxicity)
DILI positive (test set)

Likewise for CC[C@]1(O)C[C@@H]2CN(CCc3c([nH]c4ccccc34)[C@@](C(=O)OC)(c3cc4c(cc3OC)N(C)[C@H]3[C@@](O)(C(=O)OC)[C@H](OC(C)=O)[C@]5(CC)C=CCN6CC[C@]43[C@@H]65)C2)C1.O=S(=O)(O)O [VINBLASTINE SULFATE] ?
DILI negative (test set)

How about this molecule: Clc1ccc(Cl)cc1 [1,4-DICHLOROBENZENE]
DILI positive (test set)

Can you check Cc1cc(NC(=O)C2=C(O)c3ccccc3S(=O)(=O)N2C)no1 [ISOXICAM] next?
DILI negative (test set)

More entries:
Param readout = Hepatotoxicity; param system = Hepatotoxicity; param query = CC1(C)S[C@@H]2[C@H](NC(=O)[C@H](N)c3ccc(O)cc3)C(=O)N2[C@H]1C(=O)O [AMOXICILLIN] ; response: value
DILI negative (test set)
